Target: cloned human or rodent CNS receptors, channels, and transporters (PDSP panel) (Homo sapiens, UniProt P28223)
Construct: expressed in transfected cells
Sequence (P28223 whole entry): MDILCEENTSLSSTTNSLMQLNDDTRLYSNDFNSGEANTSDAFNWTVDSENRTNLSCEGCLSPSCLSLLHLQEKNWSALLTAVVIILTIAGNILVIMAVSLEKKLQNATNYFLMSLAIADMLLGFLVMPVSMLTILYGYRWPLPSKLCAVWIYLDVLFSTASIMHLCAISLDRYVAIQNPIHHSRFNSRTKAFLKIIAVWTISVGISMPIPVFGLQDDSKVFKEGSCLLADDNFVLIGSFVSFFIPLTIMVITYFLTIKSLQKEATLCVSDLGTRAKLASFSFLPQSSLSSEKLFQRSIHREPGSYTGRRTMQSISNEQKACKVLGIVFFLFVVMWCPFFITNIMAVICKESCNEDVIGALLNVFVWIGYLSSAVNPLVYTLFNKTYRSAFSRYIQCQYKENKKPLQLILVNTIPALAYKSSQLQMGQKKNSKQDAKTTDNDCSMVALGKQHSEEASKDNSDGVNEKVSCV
Assay: PDSP GPCR panel primary binding assays at 10 μM
Details: Receptor 5-HT2A; primary assay, 10 μM
Procedure: GPCR panel: Screening against the receptors within the PDSP panel offers an assessment of off-target pharmacological activity at cloned human or rodent CNS receptors, channels, and transporters that could confound CNS-related phenotypes. A total of 46–47 primary binding assays were run in quadruplicate on these compounds at 10 μM, with follow-up secondary binding assays in 11-point dose-response in triplicate for select compounds versus select receptors. […]
Hi there, I'd appreciate the recorded Inhibition 1 for every entry that follows.
One number for each entry, in %.

// known answers, use as guide
{"compound": "Cl.NC(=O)c1cnc(N[C@@H]2CCCC[C@@H]2N)nc1Nc1cccc(-n2nccn2)c1 [UNC10302682A, P505-15 (PRT06207 HCl)]", "result type": "Inhibition 1", "measurement": 13.95}
{"compound": "c1cn2cc(-c3ccc4cn[nH]c4c3)nc(Nc3ccc(N4CCOCC4)cc3)c2n1 [UNC10302678A, Entospletinib (GS-9973)]", "result type": "Inhibition 1", "measurement": -1.01}

Hi there! I need Inhibition 1 for each item below, if you can.
1. O=c1oc2ccccc2cc1-c1cn2cc(Cc3ccc(F)cc3)sc2n1 [UNC10302680A, iMDK]
2. CCCCNc1ncc2c(-c3ccc(CN4CCN(C)CC4)cc3)cn([C@H]3CC[C@H](O)CC3)c2n1 [UNC2025C, UNC2025]

1: 12.31; 2: 90.4

* * *

Biological target: cloned human or rodent CNS receptors, channels, and transporters (PDSP panel) (Homo sapiens)
Construct: expressed in transfected cells
Experiment: PDSP GPCR panel primary binding assays at 10 μM
Conditions: Receptor D5; primary assay, 10 μM
result type: Inhibition 2 (%)
One number for each entry, in %.

# example entries with known answers
{"compound": "c1cn2cc(-c3ccc4cn[nH]c4c3)nc(Nc3ccc(N4CCOCC4)cc3)c2n1 [UNC10302678A, Entospletinib (GS-9973)]", "Inhibition 2, %": 5.93}
{"compound": "CCCCNc1ncc2c(-c3ccc(CN4CCN(C)CC4)cc3)cn([C@H]3CC[C@H](O)CC3)c2n1 [UNC2025C, UNC2025]", "Inhibition 2, %": 2.13}
{"compound": "Cl.NC(=O)c1cnc(N[C@@H]2CCCC[C@@H]2N)nc1Nc1cccc(-n2nccn2)c1 [UNC10302682A, P505-15 (PRT06207 HCl)]", "Inhibition 2, %": 17.01}

--- query ---
Sample O=c1oc2ccccc2cc1-c1cn2cc(Cc3ccc(F)cc3)sc2n1 [UNC10302680A, iMDK] — what was its Inhibition 2?
16.72

* * *

Target: cloned human or rodent CNS receptors, channels, and transporters (PDSP panel) (Rattus norvegicus)
Construct: expressed in transfected cells
Sequence (Q5U3Y7 whole entry): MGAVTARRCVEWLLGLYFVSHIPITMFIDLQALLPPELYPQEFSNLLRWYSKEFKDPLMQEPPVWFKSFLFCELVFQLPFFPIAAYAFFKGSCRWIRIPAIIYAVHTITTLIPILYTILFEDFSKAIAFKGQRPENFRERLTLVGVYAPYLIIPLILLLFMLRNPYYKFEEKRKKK
Assay: PDSP GPCR panel primary binding assays at 10 μM
Conditions: Sigma 2; primary assay, replicate 3
result type: Inhibition 3 (%)
Answers are plain numbers, in %.

Example cases with answers are listed next.
{"compound": "CC(=O)N1CCC(NC(=O)NC23CC4CC(CC(C4)C2)C3)CC1 [UNC10302683A, AR9281]", "Inhibition 3 / %": -8.97}
{"compound": "CCC(=O)N1CCC(NC(=O)Nc2ccc(OC(F)(F)F)cc2)CC1 [UNC10302681A, TPPU]", "Inhibition 3 / %": 18.83}
{"compound": "CNc1nc(C)nc(N[C@H]2CCC[C@@H](C(=O)NCc3ccc(C#N)cc3C(F)(F)F)C2)n1 [UNC10302679A, GSK2256294A]", "Inhibition 3 / %": -3.92}

Now for another entry.
Quick check: Inhibition 3 of O=C(NC1CC1)C(=O)C(Cc1ccccc1)NC(=O)[C@H]1CCC(=O)N1Cc1ccccc1 (stereo partly shown) [UNC10302676A, ABT-957 (Alicapistat)] ?
13.22

* * *

Target: cloned human or rodent CNS receptors, channels, and transporters (PDSP panel) (Cavia porcellus)
Construct: expressed in transfected cells
Sequence (Q60492 whole entry): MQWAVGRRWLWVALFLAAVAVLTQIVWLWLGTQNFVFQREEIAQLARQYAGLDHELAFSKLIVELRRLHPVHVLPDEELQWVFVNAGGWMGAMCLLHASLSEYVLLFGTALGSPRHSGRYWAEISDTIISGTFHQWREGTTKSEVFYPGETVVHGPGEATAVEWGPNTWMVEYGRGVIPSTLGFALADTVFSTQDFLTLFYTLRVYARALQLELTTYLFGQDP
Assay: PDSP GPCR panel primary binding assays at 10 μM
Settings: Sigma 1; primary assay, replicate 4
result type: Inhibition 4 (%)
One number for each entry, in %.

Solved entries:
{"compound": "O=C(NC1CC1)C(=O)C(Cc1ccccc1)NC(=O)[C@H]1CCC(=O)N1Cc1ccccc1 (stereo partly shown) [UNC10302676A, ABT-957 (Alicapistat)]", "measurement": -3.65}
{"compound": "CCC(=O)N1CCC(NC(=O)Nc2ccc(OC(F)(F)F)cc2)CC1 [UNC10302681A, TPPU]", "measurement": 15.99}
{"compound": "CNc1nc(C)nc(N[C@H]2CCC[C@@H](C(=O)NCc3ccc(C#N)cc3C(F)(F)F)C2)n1 [UNC10302679A, GSK2256294A]", "measurement": -10.97}

Proceed to the following item.
Which Inhibition 4 value belongs to CC(=O)N1CCC(NC(=O)NC23CC4CC(CC(C4)C2)C3)CC1 [UNC10302683A, AR9281] ?
16.63

* * *

Target: cloned human or rodent CNS receptors, channels, and transporters (PDSP panel) (Cavia porcellus)
Construct: expressed in transfected cells
Experiment: PDSP GPCR panel primary binding assays at 10 μM
Conditions: Sigma 1; primary assay, replicate 3
result type: Inhibition 3 (%)
Answers are plain numbers, in %.

Please supply Inhibition 3 for each of the following items, keeping them in order.
1. CNc1nc(C)nc(N[C@H]2CCC[C@@H](C(=O)NCc3ccc(C#N)cc3C(F)(F)F)C2)n1 [UNC10302679A, GSK2256294A]
2. CCC(=O)N1CCC(NC(=O)Nc2ccc(OC(F)(F)F)cc2)CC1 [UNC10302681A, TPPU]
3. CC(=O)N1CCC(NC(=O)NC23CC4CC(CC(C4)C2)C3)CC1 [UNC10302683A, AR9281]
4. O=C(NC1CC1)C(=O)C(Cc1ccccc1)NC(=O)[C@H]1CCC(=O)N1Cc1ccccc1 (stereo partly shown) [UNC10302676A, ABT-957 (Alicapistat)]

1: 9.31; 2: 9.78; 3: -10.44; 4: -4.4

* * *

Test system: cloned human or rodent CNS receptors, channels, and transporters (PDSP panel)
Test: PDSP GPCR panel primary binding assays at 10 μM
Conditions: Receptor BZP Rat Brain Site; primary assay, 10 μM
Kindly supply the reported Inhibition 3 values for the records listed here.
Give bare numbers, in %.

Previously resolved entries follow.
{"compound": "O=c1oc2ccccc2cc1-c1cn2cc(Cc3ccc(F)cc3)sc2n1 [UNC10302680A, iMDK]", "target of assay": "cloned human or rodent CNS receptors, channels, and transporters (PDSP panel)", "result type": "Inhibition 3", "measurement": -22.2}
{"compound": "Cl.NC(=O)c1cnc(N[C@@H]2CCCC[C@@H]2N)nc1Nc1cccc(-n2nccn2)c1 [UNC10302682A, P505-15 (PRT06207 HCl)]", "target of assay": "cloned human or rodent CNS receptors, channels, and transporters (PDSP panel)", "result type": "Inhibition 3", "measurement": 1.11}
{"compound": "CCCCNc1ncc2c(-c3ccc(CN4CCN(C)CC4)cc3)cn([C@H]3CC[C@H](O)CC3)c2n1 [UNC2025C, UNC2025]", "target of assay": "cloned human or rodent CNS receptors, channels, and transporters (PDSP panel)", "result type": "Inhibition 3", "measurement": 5.47}

Turning now to a further record.
Which value of Inhibition 3 has been reported for c1cn2cc(-c3ccc4cn[nH]c4c3)nc(Nc3ccc(N4CCOCC4)cc3)c2n1 [UNC10302678A, Entospletinib (GS-9973)] in the records?
-0.59

* * *

Test system: cloned human or rodent CNS receptors, channels, and transporters (PDSP panel)
Test: PDSP GPCR panel primary binding assays at 10 μM
Conditions: H4; primary assay, replicate 4
result type: Inhibition 4 (%)
Answers are plain numbers, in %.

Example entries begin here.
{"compound": "CCC(=O)N1CCC(NC(=O)Nc2ccc(OC(F)(F)F)cc2)CC1 [UNC10302681A, TPPU]", "Inhibition 4 [%]": 2.7}
{"compound": "CC(=O)N1CCC(NC(=O)NC23CC4CC(CC(C4)C2)C3)CC1 [UNC10302683A, AR9281]", "Inhibition 4 [%]": 19.98}
{"compound": "CNc1nc(C)nc(N[C@H]2CCC[C@@H](C(=O)NCc3ccc(C#N)cc3C(F)(F)F)C2)n1 [UNC10302679A, GSK2256294A]", "Inhibition 4 [%]": -0.66}
{"compound": "O=C(NC1CC1)C(=O)C(Cc1ccccc1)NC(=O)[C@H]1CCC(=O)N1Cc1ccccc1 (some centres unmarked) [UNC10302676A, ABT-957 (Alicapistat)]", "Inhibition 4 [%]": -4.74}

Okay, next one:
I'd like to know its Inhibition 4. The compound in question is O=c1oc2ccccc2cc1-c1cn2cc(Cc3ccc(F)cc3)sc2n1 [UNC10302680A, iMDK]
57.67
